- System Under Test: Cytochrome P450 2C9 (Homo sapiens, UniProt P11712); also: in other assays of this panel Not Active means under 50% inhibition at 10 µM
- Sequence (P11712 whole entry): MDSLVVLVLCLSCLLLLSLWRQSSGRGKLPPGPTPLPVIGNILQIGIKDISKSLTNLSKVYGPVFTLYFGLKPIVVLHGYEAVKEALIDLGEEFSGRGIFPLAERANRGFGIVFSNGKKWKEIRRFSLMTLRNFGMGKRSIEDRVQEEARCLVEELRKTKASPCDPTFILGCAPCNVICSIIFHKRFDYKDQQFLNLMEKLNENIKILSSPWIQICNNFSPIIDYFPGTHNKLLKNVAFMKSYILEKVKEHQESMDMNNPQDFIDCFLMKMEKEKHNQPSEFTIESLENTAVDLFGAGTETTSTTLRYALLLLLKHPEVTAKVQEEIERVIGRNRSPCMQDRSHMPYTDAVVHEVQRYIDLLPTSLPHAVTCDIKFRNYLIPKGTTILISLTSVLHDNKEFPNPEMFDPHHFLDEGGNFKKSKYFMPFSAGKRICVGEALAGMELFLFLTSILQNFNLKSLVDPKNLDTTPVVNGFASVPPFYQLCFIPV
- Condition Parameters: bti-tn-5b1-4
Readout Label: IC50

Would you please look over these solved cases?
- Compound: "CC(=O)CC(c1ccccc1)c1c(O)c2ccccc2oc1=O (stereo unspecified)"
  Reported: "Not Active"
- Compound: "O=C(O)Cc1ccccc1Nc1c(Cl)cccc1Cl"
  Reported: "Not Active"
- Compound: "CCCC(CCC)C(=O)O"
  Reported: "Not Active"
- Compound: "COc1ccc2c(c1)c(CC(=O)O)c(C)n2C(=O)c1ccc(Cl)cc1"
  Reported: "Not Active"
- Compound: "CN1CCC(=C2c3ccccc3C=Cc3ccccc32)CC1"
  Reported: "Not Active"

Next item in the queue.
The compound listed as Clc1ccc2c(c1)C(N1CCNCC1)=Nc1ccccc1O2 shows IC50 equal to Not Active
